- ASSAYED_SYSTEM: T1, 4H883-bH
- T1 chain: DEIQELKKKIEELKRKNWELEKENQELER
- METHOD: two-hybrid library CCNG1;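 also: natural log of median RNA to DNA barcode read ratio; higher means stronger binding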
VALUE_TYPE: interaction score
// response body must contain only the number

BINDER: DEIQELEKKNEELKREIWELKKKIQELKR [4H462-bH]
interaction score: -0.231

BINDER: DKNQELEKEIEELKRKNWELEKKIQELER [4H3189-bH]
interaction score: -0.365

BINDER: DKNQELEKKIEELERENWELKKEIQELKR [4H3354-bH]
interaction score: -0.344

BINDER: DEIQELKKENEELERKIWELKKKNQELER [4H687-bH]
interaction score: 0.0397

BINDER: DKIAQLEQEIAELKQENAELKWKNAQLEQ [4H2143-bA]
interaction score: -0.0863

# query: interaction score of entry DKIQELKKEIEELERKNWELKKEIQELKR [4H2618-bH] 0.271

# query: interaction score of entry DEIQELKKENEELKREIWELKKKIQELER [4H717-bH] -0.589

# query: interaction score of entry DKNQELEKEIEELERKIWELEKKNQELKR [4H3112-bH] 0.871

# query: interaction score of entry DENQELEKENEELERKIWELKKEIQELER [4H1193-bH] -0.574

Source: paper PMC10397247
